Where these numbers come from: paper PMC10058894

# assay remarks: MTT assay, cell viability of RAW264.7 cells
# Type: cell-based
# test parameters: mouse, half inhibitory of RAW264.7 cells
Documented CC50 at 24 h across a set of compounds

# compound, CC50 at 24 h
measured = [
    ("[H]/N=C(/NC)NCCC[C@H](N)C(=O)O [L-NMMA, NG-monnomycin-L-arginine, reference compound]", "> 50 µM"),
    ("CC1(C)CC[C@]2(C(=O)O)CC[C@]3(C)C(=CC[C@@H]4[C@@]5(C)C[C@@H](O)[C@H](O)C(C)(C)[C@@H]5CC[C@]43C)[C@@H]2C1", "> 50 µM"),
]

Kindly consider the entry below.
stdin: Recorded CC50 at 24 h for C[C@H](O)[C@]1(O)CC[C@@]2(O)[C@]1(C)[C@H](OC(=O)/C=C/c1ccccc1)C[C@@H]1[C@@]3(C)CC[C@H](O[C@H]4C[C@H](O)[C@H](O)[C@@H](C)O4)CC3=CC[C@]12O , please?
stdout: 30.1 µM

---

# test system: UniProtKB P05023
# assay remarks: ATP1A1 level and location in HepG2 cells (western blot, fluorescence staining, lysosomal colocalization)
# Type: cell-based
# Parameters: we focused on the regulatory effect of 5 on ATP1A1 in HepG2 cells; endogenous in cells; host or cells: HepG2
# test parameters: HepG2; 5 25 μmol∙L−1, digitonin 10, MK 2206 40, FR 180204 200 nmol∙L−1; western blot
test readout: expression of ATP1A1 (comparison with inhibitors)

# molecule, value reported
data = [
    ("Nc1[nH]nc2nnc(-c3c(-c4ccccc4)nn4ccccc34)cc12 [FR 180204, reference compound]", "not similarly observed"),
    ("C[C@@H]1CC[C@@]2(OC1)O[C@H]1[C@@H](O)[C@H]3[C@@H]4CC[C@H]5C[C@@H](O[C@@H]6O[C@H](CO)[C@H](O[C@@H]7O[C@H](CO)[C@@H](O)[C@H](O[C@@H]8OC[C@@H](O)[C@H](O)[C@H]8O)[C@H]7O[C@@H]7O[C@H](CO)[C@H](O)[C@H](O[C@@H]8O[C@H](CO)[C@@H](O)[C@H](O)[C@H]8O)[C@H]7O)[C@H](O)[C@H]6O)[C@H](O)C[C@]5(C)[C@H]4CC[C@]3(C)[C@H]1[C@@H]2C [digitonin, reference compound]", "not similarly observed"),
    ("NC1(c2ccc(-c3nc4ccn5c(=O)[nH]nc5c4cc3-c3ccccc3)cc2)CCC1 [MK 2206, reference compound]", "not similarly observed"),
]
